system: S. aureus DSM 20231; test: Bliss interaction score (quartile over a dose matrix) (fitness difference); higher = more antagonism (negative = synergy);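 also: first quartile when negative (synergy) and third quartile when positive (antagonism)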
Assign Criterion met whenever Bliss interaction score does not fall below -0.05; assign Criterion not met whenever it does.

For this compound, is measured Bliss interaction score -0.05 or higher? CN[C@@H]1[C@H](O)[C@H](NC)[C@H]2O[C@@]3(O)C(=O)C[C@@H](C)O[C@H]3O[C@@H]2[C@H]1O [Spectinomycin] + Oc1cc(Cl)ccc1Oc1ccc(Cl)cc1Cl [Triclosan]
Criterion not met

For this compound, is measured Bliss interaction score -0.05 or higher? CC(=O)NC[C@H]1CN(c2ccc(N3CCOCC3)c(F)c2)C(=O)O1 [Linezolid] + CO[C@@H]1[C@@H](OC(N)=O)[C@@H](O)[C@H](Oc2ccc3c(O)c(NC(=O)c4ccc(O)c(CC=C(C)C)c4)c(=O)oc3c2C)OC1(C)C [Novobiocin]
Criterion met

For this compound, is measured Bliss interaction score -0.05 or higher? CN[C@H](CC(C)C)C(=O)N[C@H]1C(=O)N[C@@H](CC(N)=O)C(=O)N[C@H]2C(=O)N[C@H]3C(=O)N[C@H](C(=O)N[C@H](C(=O)O)c4cc(O)cc(O)c4-c4cc3ccc4O)[C@H](O[C@H]3C[C@](C)(N)[C@@H](O)[C@H](C)O3)c3ccc(c(Cl)c3)Oc3cc2cc(c3O[C@@H]2O[C@H](CO)[C@@H](O)[C@H](O)[C@H]2O[C@H]2C[C@](C)(NCc3ccc(-c4ccc(Cl)cc4)cc3)[C@@H](O)[C@H](C)O2)Oc2ccc(cc2Cl)[C@H]1O [Oritavancin] + COc1cc(Cc2cnc(N)nc2N)cc(OC)c1OC [Trimethoprim]
Criterion met

For this compound, is measured Bliss interaction score -0.05 or higher? CC(=O)NC[C@H]1CN(c2ccc(N3CCOCC3)c(F)c2)C(=O)O1 [Linezolid] + C[n+]1ccc(-c2cc[n+](C)cc2)cc1 [Paraquat]
Criterion met

For this compound, is measured Bliss interaction score -0.05 or higher? CN[C@@H]1[C@H](O)[C@H](NC)[C@H]2O[C@@]3(O)C(=O)C[C@@H](C)O[C@H]3O[C@@H]2[C@H]1O [Spectinomycin] + CN[C@H](CC(C)C)C(=O)N[C@H]1C(=O)N[C@@H](CC(N)=O)C(=O)N[C@H]2C(=O)N[C@H]3C(=O)N[C@H](C(=O)N[C@H](C(=O)O)c4cc(O)cc(O)c4-c4cc3ccc4O)[C@H](O)c3ccc(c(Cl)c3)Oc3cc2cc(c3O[C@@H]2O[C@H](CO)[C@@H](O)[C@H](O)[C@H]2O[C@H]2C[C@](C)(N)[C@H](O)[C@H](C)O2)Oc2ccc(cc2Cl)[C@H]1O [Vancomycin]
Criterion not met

For this compound, is measured Bliss interaction score -0.05 or higher? CC[C@H]1OC(=O)[C@H](C)[C@@H](O[C@H]2C[C@@](C)(OC)[C@@H](O)[C@H](C)O2)[C@H](C)[C@@H](O[C@@H]2O[C@H](C)C[C@H](N(C)C)[C@H]2O)[C@](C)(O)C[C@@H](C)C(=O)[C@H](C)[C@@H](O)[C@]1(C)O [Erythromycin] + Cn1nnc(-c2ccc(-c3ccc(N4C[C@H](CO)OC4=O)cc3F)cn2)n1 [Tedizolid]
Criterion not met

###

test system: S. pneumoniae D39V; assay: Bliss interaction score (quartile over a dose matrix) (fitness difference); higher = more antagonism (negative = synergy)
RECORDED METRIC: Bliss interaction score

So for CO[C@@H]1[C@@H](OC(N)=O)[C@@H](O)[C@H](Oc2ccc3c(O)c(NC(=O)c4ccc(O)c(CC=C(C)C)c4)c(=O)oc3c2C)OC1(C)C [Novobiocin] + CCN(CC)CCOC(=O)c1ccc(N)cc1 [Procaine] , the logged Bliss interaction score turned out to be -0.109

So for CC[C@H]1OC(=O)[C@H](C)[C@@H](O[C@H]2C[C@@](C)(OC)[C@@H](O)[C@H](C)O2)[C@H](C)[C@@H](O[C@@H]2O[C@H](C)C[C@H](N(C)C)[C@H]2O)[C@](C)(O)C[C@@H](C)C(=O)[C@H](C)[C@@H](O)[C@]1(C)O [Erythromycin] + Clc1ccc(COC(Cn2ccnc2)c2ccc(Cl)cc2Cl)c(Cl)c1 [Miconazole] , the logged Bliss interaction score turned out to be 0.114

So for CO[C@@]12[C@H](COC(N)=O)C3=C(C(=O)C(C)=C(N)C3=O)N1C[C@@H]1N[C@@H]12 [MitomycinC] + CO[C@H]1/C=C/O[C@@]2(C)Oc3c(C)c(O)c4c(O)c(c(/C=N/N5CCN(C)CC5)c(O)c4c3C2=O)NC(=O)/C(C)=C\C=C\[C@H](C)[C@H](O)[C@@H](C)[C@@H](O)[C@@H](C)[C@H](OC(C)=O)[C@@H]1C [Rifampicin] , the logged Bliss interaction score turned out to be -0.117

###

test system: B. subtilis 168; assay: Bliss interaction score (quartile over a dose matrix) (fitness difference); higher = more antagonism (negative = synergy); settings: main component drawn
Assign T whenever Bliss interaction score does not fall below -0.05; assign F whenever it does.

For this compound, is measured Bliss interaction score -0.05 or higher? CC[C@H](C)[C@H](N)C1=N[C@H](C(=O)N[C@@H](CC(C)C)C(=O)N[C@H](CCC(=O)O)C(=O)N[C@H](C(=O)N[C@H]2CCCCNC(=O)[C@H](CC(N)=O)NC(=O)[C@@H](CC(=O)O)NC(=O)[C@H](Cc3cnc[nH]3)NC(=O)[C@@H](Cc3ccccc3)NC(=O)[C@H]([C@@H](C)CC)NC(=O)[C@@H](CCCN)NC2=O)[C@@H](C)CC)CS1 [Bacitracin] + Cc1onc(-c2ccccc2)c1C(=O)N[C@@H]1C(=O)N2[C@@H]1SC(C)(C)[C@@H]2C(=O)O [Oxacillin]
T

For this compound, is measured Bliss interaction score -0.05 or higher? CC[C@H](C)[C@H](N)C1=N[C@H](C(=O)N[C@@H](CC(C)C)C(=O)N[C@H](CCC(=O)O)C(=O)N[C@H](C(=O)N[C@H]2CCCCNC(=O)[C@H](CC(N)=O)NC(=O)[C@@H](CC(=O)O)NC(=O)[C@H](Cc3cnc[nH]3)NC(=O)[C@@H](Cc3ccccc3)NC(=O)[C@H]([C@@H](C)CC)NC(=O)[C@@H](CCCN)NC2=O)[C@@H](C)CC)CS1 [Bacitracin] + C[n+]1ccc(-c2cc[n+](C)cc2)cc1 [Paraquat]
T

For this compound, is measured Bliss interaction score -0.05 or higher? CC[C@H](C)[C@H](N)C1=N[C@H](C(=O)N[C@@H](CC(C)C)C(=O)N[C@H](CCC(=O)O)C(=O)N[C@H](C(=O)N[C@H]2CCCCNC(=O)[C@H](CC(N)=O)NC(=O)[C@@H](CC(=O)O)NC(=O)[C@H](Cc3cnc[nH]3)NC(=O)[C@@H](Cc3ccccc3)NC(=O)[C@H]([C@@H](C)CC)NC(=O)[C@@H](CCCN)NC2=O)[C@@H](C)CC)CS1 [Bacitracin] + CC(=O)NC[C@H]1CN(c2ccc(N3CCOCC3)c(F)c2)C(=O)O1 [Linezolid]
F

For this compound, is measured Bliss interaction score -0.05 or higher? CC[C@H](C)[C@H](N)C1=N[C@H](C(=O)N[C@@H](CC(C)C)C(=O)N[C@H](CCC(=O)O)C(=O)N[C@H](C(=O)N[C@H]2CCCCNC(=O)[C@H](CC(N)=O)NC(=O)[C@@H](CC(=O)O)NC(=O)[C@H](Cc3cnc[nH]3)NC(=O)[C@@H](Cc3ccccc3)NC(=O)[C@H]([C@@H](C)CC)NC(=O)[C@@H](CCCN)NC2=O)[C@@H](C)CC)CS1 [Bacitracin] + CN(C)[C@@H]1C(O)=C(C(N)=O)C(=O)[C@@]2(O)C(O)=C3C(=O)c4c(O)ccc(Cl)c4[C@@](C)(O)[C@H]3C[C@@H]12 [Clortetracycline]
F

For this compound, is measured Bliss interaction score -0.05 or higher? CC[C@H](C)[C@H](N)C1=N[C@H](C(=O)N[C@@H](CC(C)C)C(=O)N[C@H](CCC(=O)O)C(=O)N[C@H](C(=O)N[C@H]2CCCCNC(=O)[C@H](CC(N)=O)NC(=O)[C@@H](CC(=O)O)NC(=O)[C@H](Cc3cnc[nH]3)NC(=O)[C@@H](Cc3ccccc3)NC(=O)[C@H]([C@@H](C)CC)NC(=O)[C@@H](CCCN)NC2=O)[C@@H](C)CC)CS1 [Bacitracin] + CCN(CC)CCOC(=O)c1ccc(N)cc1 [Procaine]
T

###

test system: S. aureus Newman; experiment: Bliss interaction score (quartile over a dose matrix) (fitness difference); higher = more antagonism (negative = synergy)
RECORDED METRIC: Bliss interaction score
API doc: respond with a numeric literal and nothing else, no unit.

So for CC[C@H]1OC(=O)[C@H](C)[C@@H](O[C@H]2C[C@@](C)(OC)[C@@H](O)[C@H](C)O2)[C@H](C)[C@@H](O[C@@H]2O[C@H](C)C[C@H](N(C)C)[C@H]2O)[C@](C)(O)C[C@@H](C)C(=O)[C@H](C)[C@@H](O)[C@]1(C)O [Erythromycin] + CC1(C)S[C@@H]2[C@H](NC(=O)Cc3ccccc3)C(=O)N2[C@H]1C(=O)O [PenicillinG] , the logged Bliss interaction score turned out to be -0.0654

So for CO[C@H]1/C=C/O[C@@]2(C)Oc3c(C)c(O)c4c(O)c(c(/C=N/N5CCN(C)CC5)c(O)c4c3C2=O)NC(=O)/C(C)=C\C=C\[C@H](C)[C@H](O)[C@@H](C)[C@@H](O)[C@@H](C)[C@H](OC(C)=O)[C@@H]1C [Rifampicin] + CC1=C\[C@@H](O)CC(=O)Cc2nc(co2)C(=O)N2CCC=C2C(=O)O[C@H](C(C)C)[C@H](C)/C=C/C(=O)NC\C=C\1 [Virginiamycin M1] , the logged Bliss interaction score turned out to be -0.0218

Taken from the supplement of paper PMC10627819.
